system: Mus musculus; assay: Amnesia-reversal activity evaluated in scopolamine-induced amnesia model of mice at a dose of 1 mg/kg; assay type: functional
Can you tell me AA for the items I'm about to list?
Answers are plain numbers.

Sample answers from the record:
{"COMPOUND": "COC(=O)CN1CCCC[C@H](NC(=O)CCCc2ccccc2)C1=O", "NUMERIC VALUE": 0}
{"COMPOUND": "N[C@@H]1CCCCNC1=O", "NUMERIC VALUE": 44}
{"COMPOUND": "O=CCN1CCCC[C@H](NC(=O)CCCc2ccccc2)C1=O", "NUMERIC VALUE": 26}
{"COMPOUND": "O=CNC1CCNC1=O (stereo unspecified)", "NUMERIC VALUE": 0}
{"COMPOUND": "N[C@H]1CCNC1=O", "NUMERIC VALUE": 0}

Please look at the following compound next.
AA value, target or system Mus musculus, for N[C@H]1CCCCNC1=O : 47

* * *

tested on: Mus musculus; test: Amnesia-reversal activity in ECS-induced amnesia model of mice at 1 mg/kg i.p.; type: functional; conditions: route intraperitoneal
# cutoff 20 applies to AA; >= gives class 1, < gives class 0

Examples from the recorded data:
{"COMPOUND": "O=C(NC1CCCCNC1=O)c1cccc(C(F)(F)F)c1 (stereo unspecified)", "QUALITATIVE LABEL": "class 0"}
{"COMPOUND": "O=C1NCCCCC1NC(=O)[C@@H]1CCCN1C(=O)OCc1ccccc1 (stereo partly specified)", "QUALITATIVE LABEL": "class 0"}

Record O=C(CCCc1ccccc1)NC1CCCCNC1=O (stereo unspecified) ; criterion: AA no lower than 20. Met? class 0

Given O=C(N[C@@H]1CCCCNC1=O)c1cccc(C(F)(F)F)c1 , state whether its AA is at least 20. class 1

* * *

I'd be grateful if you could share measured AA for these entries.
test system: Mus musculus; assay: Amnesia-reversal activity in ECS-induced amnesia model of mice at 1 mg/kg i.p.; format: functional; conditions: route intraperitoneal
Numbers only.

Some entries whose results are on file:
{"MOLECULE": "NC(=O)CN1CCCC[C@H](NC(=O)CCCc2ccccc2)C1=O", "AA": 0}
{"MOLECULE": "COc1cc(C(=O)NC2CCCCNC2=O)cc(OC)c1OC (configuration not stated)", "AA": 31}
{"MOLECULE": "COC(=O)CN1CCCC[C@H](NC=O)C1=O", "AA": 0}
{"MOLECULE": "O=C(CN1CCCC1=O)NC1CCCCNC1=O (configuration not stated)", "AA": 10}
{"MOLECULE": "NC(=O)CN1CCCC[C@H](NC=O)C1=O", "AA": 55}
{"MOLECULE": "COc1ccc(C(=O)NC2CCCCNC2=O)cc1 (configuration not stated)", "AA": 37}

Consider the additional molecule presented here.
Looking up O=CNC1CCCCNC1=O (configuration not stated) , I see its AA listed as 71

* * *

test system: Mus musculus; assay: Amnesia-reversal activity in ECS-induced amnesia model of mice at 1 mg/kg i.p.; type: functional; conditions: route intraperitoneal
Labelling: AA reported below 30 becomes rule met; at or above becomes rule not met.

Use these answered entries as a reference point.
{"COMPOUND": "NC(=O)CN1CCCC1=O [PIRACETAM]", "TARGET OR SYSTEM": "Mus musculus", "QUALITATIVE LABEL": "rule met"}
{"COMPOUND": "O=C(CCCc1ccccc1)N[C@H]1CCCCN(CCO)C1=O", "TARGET OR SYSTEM": "Mus musculus", "QUALITATIVE LABEL": "rule met"}
{"COMPOUND": "COc1ccc(C(=O)N2CCCC2=O)cc1 [ANIRACETAM]", "TARGET OR SYSTEM": "Mus musculus", "QUALITATIVE LABEL": "rule met"}
{"COMPOUND": "CC(=O)NC1CCCCNC1=O (configuration not stated)", "TARGET OR SYSTEM": "Mus musculus", "QUALITATIVE LABEL": "rule met"}
{"COMPOUND": "NC(=O)CN1CC(O)CC1=O (configuration not stated) [OXIRACETAM]", "TARGET OR SYSTEM": "Mus musculus", "QUALITATIVE LABEL": "rule not met"}
{"COMPOUND": "O=CN[C@H]1CCCCN(CCO)C1=O", "TARGET OR SYSTEM": "Mus musculus", "QUALITATIVE LABEL": "rule not met"}

Now for a further compound.
Given O=C(NC1CCNC1=O)c1cccc(C(F)(F)F)c1 (configuration not stated) , is recorded AA strictly lower than 30? rule not met
